assay: In vivo determination of unbound brain-to-plasma partition coefficient (Kp,uu,brain) in rats; conditions: rat, brain/plasma; 10 mg/kg oral, male Sprague-Dawley rats, 0.5 hr, mean +/- SD
quantity: Kp uu at 0.5 h
Please reply with the number alone, leaving off any unit.

Q: Consider the compound Cc1cc(OCCc2ccc([C@@H](C)[C@]3(C)CC(=O)NC3=O)cc2)cc(C)n1 [Example 1] and give its measured Kp uu at 0.5 h.
Result: 0.34

---

experiment: In vivo determination of unbound brain-to-plasma partition coefficient (Kp,uu,brain) in rats; conditions: rat, brain/plasma; 10 mg/kg oral, male Sprague-Dawley rats, 2.0 hr, mean +/- SD
quantity: Kp uu at 2 h
In your answer, state the number alone without any accompanying words.

Q: Bench note: what Kp uu at 2 h did Cc1cc(OCCc2ccc([C@@H](C)[C@]3(C)CC(=O)NC3=O)cc2)cc(C)n1 show?
Result: 0.35

---

Assay: In vivo determination of unbound brain-to-plasma partition coefficient (Kp,uu,brain) in rats
Conditions: male, Sprague-Dawley, rat, brain, oral, 10 mg/kg, 10 mg/kg oral, 2.0 hr, using rat fu,brain 0.126, mean +/- SD, read-out: Unbound brain conc. (Cu,brain)
Procedure: In Vivo Determination of Unbound Brain-to-Plasma Partition Coefficient (Kp,uu,brain) in Rats […] Kp,uu,brain is calculated for each time point from the expression below where individual components are derived from a combination of in vitro and in vivo measurements carried out as described above: […]
quantity: concentration at 2 h (nM)
Expressed in nM, but write only the number.

Q: Which concentration at 2 h is reported for this compound? Cc1cc(OCCc2ccc([C@@H](C)[C@]3(C)CC(=O)NC3=O)cc2)cc(C)n1
Result: 51

---

Assay: In vivo determination of unbound brain-to-plasma partition coefficient (Kp,uu,brain) in rats
Settings: male, Sprague-Dawley, rat, brain, oral, 10 mg/kg, 10 mg/kg oral, 0.5 hr, mean +/- SD, read-out: Total brain conc. (Ctotal,brain)
Protocol: In Vivo Determination of Unbound Brain-to-Plasma Partition Coefficient (Kp,uu,brain) in Rats […] Kp,uu,brain is calculated for each time point from the expression below where individual components are derived from a combination of in vitro and in vivo measurements carried out as described above: […]
quantity: concentration at 0.5 h (nM)
The figure you give is taken to be in nM; do not add the unit.

Q: Please report the recorded concentration at 0.5 h for Cc1cc(OCCc2ccc([C@@H](C)[C@]3(C)CC(=O)NC3=O)cc2)cc(C)n1 .
Result: 365
